Data credit: the supplement of paper PMC11908140

B1: library; numbered along this chain (parent)
chain: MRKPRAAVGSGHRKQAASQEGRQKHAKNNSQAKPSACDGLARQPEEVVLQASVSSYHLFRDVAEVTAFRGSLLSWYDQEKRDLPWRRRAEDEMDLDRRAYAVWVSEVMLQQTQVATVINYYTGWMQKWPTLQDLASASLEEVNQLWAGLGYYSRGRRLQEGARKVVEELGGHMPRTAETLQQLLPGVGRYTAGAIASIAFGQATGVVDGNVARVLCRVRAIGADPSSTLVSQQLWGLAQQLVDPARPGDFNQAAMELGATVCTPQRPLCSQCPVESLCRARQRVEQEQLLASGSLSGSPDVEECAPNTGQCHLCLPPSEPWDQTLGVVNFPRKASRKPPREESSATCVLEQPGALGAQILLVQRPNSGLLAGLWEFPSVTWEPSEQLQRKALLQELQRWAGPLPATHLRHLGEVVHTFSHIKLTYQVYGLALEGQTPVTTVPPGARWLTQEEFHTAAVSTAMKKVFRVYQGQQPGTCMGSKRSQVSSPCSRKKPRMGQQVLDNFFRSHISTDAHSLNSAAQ

# Variants of: B1
# assay.comment: 8OG:A repair function score (normalized; synonymous = 0, nonsense = -1) (normalized log-likelihood score); higher = more repair activity (WT-like);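 note: cells sorted at 72 h after reporter transfection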
# setup.conditions: with 8OG:A DNA repair reporter (GFP) in HEK-293 MUTYH KO cells
Ranges used to classify 8OG:A repair function score: range 1 = under -0.2, range 2 = from -0.2 up to -0.03, range 3 = -0.03 and over

Using the reported 8OG:A repair function score, which band applies to `I421F` ?
range 2

Using the reported 8OG:A repair function score, which band applies to `E140G` ?
range 2

Using the reported 8OG:A repair function score, which band applies to `A457L` ?
range 1
